Reference source for all entries: PubChem BioAssay (NCATS)

Test: Quantitative High-Throughput drug screen in 47 multiple myeloma cell lines against the NCATS MIPE library collection: ARD_JJKsccE7 cell viability assay (AID 1918929;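 on viability: 100% = DMSO-only wells and 0% = media-only wells without cells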)
Settings: ARD myeloma cell line viability, CellTiter-Glo, 48 h; series mostly up to 45.8 µM
Records with an inconclusive call do not appear. Activity calls are given as the source filed them. The call rests on the fitted dose curve; in most records, active means well fitted cell-killing curve with a large enough effect; inconclusive means small, poorly fitted or top-dose-only effect, or effect the other way; inactive means no such curve, though single readings can be large or run the other way. Starred links: 1 amine or outer side, 2 acyl side, 3 side chain; linkers in the order of their positions; H or OH if unused. Positions of bridges follow the written chain, without caps; N, C: chain ends. Non-standard residues stand in square brackets, D forms with d. Residues, ends and D or L forms follow the SMILES beside them. Chains are numbered I, II in the order given. Actinocin(9to1) = Cc1c2oc3c(C)ccc(C(=O)[*:1])c3nc-2c(C(=O)[*:2])c(N)c1=O; NMeV = CN[CH](C(=O)O)C(C)C; Sar = CNCC(=O)O
Field 'call' accepts yes (1) = active, no (0) = inactive

Here's what some known entries look like.
N#CNC(=NCCCCCCOc1ccc(Cl)cc1)Nc1ccncc1 ... yes (1)
Oc1cc2c(cc1O)C1c3ccc(O)c(O)c3OCC1(O)C2 (stereo unspecified) ... no (0)
C=CC(=O)N1CCc2ccc(-n3c(=O)ccc4cnc5ccc(-c6cnn(C)c6)cc5c43)cc21 ... yes (1)
C=C[C@@H]1CN2CCC1C[C@H]2[C@H](O)c1ccnc2ccc(OC)cc12 (stereo partly specified) ... no (0)
Cc1c2oc3c(C)ccc(C(=O)NC4C(=O)NC(C(C)C)C(=O)N5CCCC5C(=O)N(C)CC(=O)N(C)C(C(C)C)C(=O)OC4C)c3nc-2c(C(=O)NC2C(=O)NC(C(C)C)C(=O)N3CCCC3C(=O)N(C)CC(=O)N(C)C(C(C)C)C(=O)OC2C)c(N)c1=O (stereo unspecified) (I: TVP[Sar][NMeV] / II: TVP[Sar][NMeV]; ester I:1-I:C, II:1-II:C; linker I:N-II:N via Actinocin(9to1); configuration not given here) ... no (0)

Exam item: What did the test return for `CCC(C=C[C@@H]1OC(=O)C=C[C@H]1C)=C[C@H](C)CC=CC(C)=C[C@@H](C)C(=O)[C@@H](C)[C@H](O)[C@@H](C)CC(C)=CC(=O)O` ?
Marked response: yes (1)
